meta.source: patent US20120316169A1

Target: BKB1 receptors (Homo sapiens)
Construct: Human (IMR-90) lung fibroblast cells expressing native B1 receptors; endogenous in cells
Sequence (P46663 whole entry): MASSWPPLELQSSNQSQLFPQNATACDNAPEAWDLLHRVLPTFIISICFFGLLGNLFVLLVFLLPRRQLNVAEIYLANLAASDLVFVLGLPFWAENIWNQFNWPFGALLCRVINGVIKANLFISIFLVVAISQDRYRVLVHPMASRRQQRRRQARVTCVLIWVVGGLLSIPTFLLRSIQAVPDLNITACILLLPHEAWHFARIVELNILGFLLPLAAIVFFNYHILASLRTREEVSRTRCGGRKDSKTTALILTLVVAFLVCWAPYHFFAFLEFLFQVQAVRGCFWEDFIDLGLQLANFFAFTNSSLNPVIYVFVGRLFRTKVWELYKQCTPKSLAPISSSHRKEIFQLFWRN
Test: Calcium mobilization assay (FLIPR), B1 receptors in IMR-90 cells
Conditions: Human IMR-90 lung fibroblast cells, up-regulated BKB1 receptors, agonist desArg10-kallidin (DAKD) 2 to 8 nM, calcium-dependent fluorescence
READOUT: IC50 (µM)

Example entries begin here.
Req: Name the recorded IC50 for CC(C)(C(=O)NCCc1ccncc1)c1ccc(OS(=O)(=O)C(F)(F)F)cc1 [Compound 7] .
Resp: 11.5

Req: Name the recorded IC50 for CC(F)(C(=O)Nc1ccccc1S(N)(=O)=O)c1cccc(Nc2nc(C(F)(F)F)cs2)c1 (stereo not drawn) [Compound 5] .
Resp: 8.71

Req: Name the recorded IC50 for CC(C(=O)Nc1ccccc1)c1cccc(C(=O)c2ccccc2)c1 (stereo not drawn) [Compound 35] .
Resp: 10

Req: Name the recorded IC50 for CC(C(=O)Nc1nc(C(C)(C)C)cs1)c1ccc(NS(=O)(=O)C(C)C)cc1 (stereo not drawn) [Compound 21] .
Resp: 9.12

Req: Name the recorded IC50 for Cc1cc(NC(=O)C(C)c2ccc(CC(C)C)cc2)n(C)n1 (stereo not drawn) [Compound 40] .
Resp: 2.09

Req: Name the recorded IC50 for CC1CC(C)CN(CCNC(=O)C(C)c2ccc(Nc3nc(C(F)(F)F)cs3)cc2)C1 (stereo not drawn) [Compound 42] .
Resp: 6.61

a = CC(C(=O)Nc1ccncn1)c1cccc(NC2CC2)c1 (stereo not drawn) [Compound 14]
b = CC(C)Cc1ccc(C(C)C(=O)Nc2ccncc2)cc1 (stereo not drawn) [Compound 37]
c = CC(C(=O)Nc1ccncc1)c1cccc(Oc2ccc3ccccc3c2)c1 (stereo not drawn) [Compound 73]
Req: // sort entries: IC50, high to low // list labels; follow requested order
Resp: a, c, b
